assay.system: G-protein coupled receptor 35 (Homo sapiens)
Sequence (Q9HC97 whole entry): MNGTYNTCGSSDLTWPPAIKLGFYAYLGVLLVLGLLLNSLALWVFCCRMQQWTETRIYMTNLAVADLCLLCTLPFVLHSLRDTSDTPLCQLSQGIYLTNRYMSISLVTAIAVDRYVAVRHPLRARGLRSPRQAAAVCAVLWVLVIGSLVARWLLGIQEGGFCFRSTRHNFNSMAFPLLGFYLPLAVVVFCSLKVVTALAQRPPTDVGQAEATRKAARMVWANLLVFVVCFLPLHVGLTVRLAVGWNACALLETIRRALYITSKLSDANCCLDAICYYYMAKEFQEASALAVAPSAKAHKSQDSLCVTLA
test.method.notes: Agonist activity at GPR35 in human HT-29 cells assessed as induction of cell desensitization to 1 uM zaprinast preincubated for 1 hr followed by zaprinast stimulation measured after 8 minutes by DMR assay
Rule for this label: label 1 means IC50 is less than 2000 nM; label 0 means IC50 is at least 2000 nM.

O=c1oc2c([N+](=O)[O-])cc(Br)cc2cc1-c1nnn[nH]1    label 1
O=C(O)c1cc2cc(Br)c(O)cc2oc1=O    label 0
COc1cc2oc(=O)c(-c3nnn[nH]3)cc2cc1Br    label 0
N#Cc1cc2cc(Br)c(O)cc2oc1=O    label 0

Task: I wonder whether COc1c(Br)cc2cc(C(=O)O)c(=O)oc2c1Br has IC50 below 2000 nM. Can you tell?
Output: label 1

Task: I wonder whether N#Cc1cc2cc(Br)cc([N+](=O)[O-])c2oc1=O has IC50 below 2000 nM. Can you tell?
Output: label 1

Task: I wonder whether O=c1oc2cc(O)c(Br)cc2cc1-c1nnn[nH]1 has IC50 below 2000 nM. Can you tell?
Output: label 1

Task: I wonder whether O=C(O)c1cc2cc(Cl)cc(Cl)c2oc1=O has IC50 below 2000 nM. Can you tell?
Output: label 0

Task: I wonder whether N#Cc1cc2cc(Cl)cc(Cl)c2oc1=O has IC50 below 2000 nM. Can you tell?
Output: label 0

Task: I wonder whether O=C(O)c1cc2ccccc2oc1=O [COUMARIN-3-CARBOXYLIC ACID] has IC50 below 2000 nM. Can you tell?
Output: label 0

Task: I wonder whether N#Cc1cc2cc(Br)cc(Br)c2oc1=O has IC50 below 2000 nM. Can you tell?
Output: label 0

Task: I wonder whether O=c1oc2c([N+](=O)[O-])c(O)c(Br)cc2cc1-c1nnn[nH]1 has IC50 below 2000 nM. Can you tell?
Output: label 1

Task: I wonder whether O=C(O)c1cc2cc(Br)c(O)c([N+](=O)[O-])c2oc1=O has IC50 below 2000 nM. Can you tell?
Output: label 1

Task: I wonder whether O=C(O)c1cc2cc(Br)cc(Br)c2oc1=O has IC50 below 2000 nM. Can you tell?
Output: label 1

Task: I wonder whether O=C(O)c1cc2cc(Cl)ccc2oc1=O has IC50 below 2000 nM. Can you tell?
Output: label 0

* * *

assay.system: G-protein coupled receptor 35 (Homo sapiens)
test.method.notes: Agonist activity at GPR35 in human HT-29 cells by DMR assay
Assay type: cell-based
recorded.conditions: read-out: EC50
Rule for this label: true (1) means EC50 is less than 3 µM; false (0) means EC50 is at least 3 µM.

N#Cc1cc2cc(Cl)cc(Cl)c2oc1=O    false (0)
O=C(O)c1cc2cc(Br)c(O)cc2oc1=O    false (0)
N#Cc1cc2cc(Br)cc(Br)c2oc1=O    false (0)

Task: I wonder whether O=C(O)c1cc2cc(Br)c(O)c(Br)c2oc1=O has EC50 below 3 µM. Can you tell?
Output: true (1)

* * *

IC50 reference
assay.system: G-protein coupled receptor 35 (Homo sapiens)
test.method.notes: Agonist activity at GPR35 in human HT-29 cells assessed as induction of cell desensitization to 1 uM zaprinast preincubated for 1 hr followed by zaprinast stimulation measured after 8 minutes by DMR assay
Note: a bare number is incomplete; add the unit.

O=c1oc2c(Br)c(O)c(Br)cc2cc1-c1nnn[nH]1    23 nM
O=c1oc2c([N+](=O)[O-])c(O)c([N+](=O)[O-])cc2cc1-c1nnn[nH]1    13 nM

Let us move to another entry and its IC50.
Task: Query the reported IC50 for G-protein coupled receptor 35 (Homo sapiens); item: COc1c(Br)cc2cc(C#N)c(=O)oc2c1[N+](=O)[O-]
Output: 1690 nM
